Experiment: Saturation mutagenesis of SEQ ID NO:109: dicamba decarboxylation activity of point mutants (CO2 released), fold of backbone (Tables 7, 8, Megatable 1)
Conditions: decarboxylation activity (CO2 released) of point mutant vs unmutated backbone protein; backbone SEQ ID NO: 109
Endpoint label: Fold Activity
Report the figure along with its unit, number first.

Answer with the recorded Fold Activity of 38 (protein, listed as Variovorax paradoxus) MAQGKIGLEEHFAIPQTLQDSAGFVPGVYWKELSSRLLDIHDGRLRQMDEHGMEMMILSLNAPAVQAVADPVKAYELAVRANDFLAEQVAKRPDRFQAFAALPMQDPEKATQELERCMSVLGFRGALVNGFSQVGTPDNVAYYDAPQYAPFWAAAERLDAPFYLHPRNPIASWAQIYEGHPWLLGPTWAFAQETAVHALRLMASGLFDRHPGLKIILGHLGEGLPYNMWRVDHRNAWVKAPKGYPAKRKLCEYFQENFYLTTSGNFRTQTLIDAMLEVGSDRILFSTDWPFENIDHASNWFNDTSISEADRKKIGRTNAMSLFKLA only.
1.8 fold

Answer with the recorded Fold Activity of 27 (protein, listed as Aspergillus oryzae) MALGKIALEEAFALPRFEEKTRWWASLFSTDAETHVKEITDINKIRIEHADKHGVGYQILSYTAPGVQDIWDPVEAQALAVEINDYIAEQVRVNPDRFGAFATLSMHNPKEAADELRRCVEKYGFKGALVNDTQRAGPDGDDMIFYDNADWDIFWQTCTELDVPFYMHPRNPTGTIYEKLWADRKWLVGPPLSFAHGVSLHVLGMVTNGVFDRHPKLQIIMGHLGEHVPFDMWRINHWFEDRKKLLGLAETCKKTIRDYFAENIWITTSGHFSTTTLNFCMAEVGSDRILFSIDYPFETFSDACEWFDNAELNGTDRLKIGRENAKKLFKLDSYKDSSA only.
1 fold

Answer with the recorded Fold Activity of 111 (protein, Dicamba decarboxylase variant clone: DC.4.112) MAQGKVALEEHFAIPETLQDSMGFVPGDYWKELMHRLLDIQDTRLKLMDAHGIETMILSLNAPAVQAIPDRRKAIEIARRANDVLAEECAKRPDRFLAFAALPLQDPDAATEELQRCVNDLGFVGALVNGFSQEGDGQTPLYYDLPQYRPFWGEVEKLDVPFYLHPRNPLPQDSRIYDGHPWLLGPTWAFAQETAVHALRLMASGLFDEHPRLNIILGHMGEGLPYMMWRIDHRMAWIKLPPRYPAKRRFMDYFNENFHITTSGNFRTQTLIDAILEIGADRILFSTDWPFENIDHASDWFNATSIAEADRVKIGRTNARRLFKLDGA only.
1.2 fold

Answer with the recorded Fold Activity of 102 (protein, listed as Lactobacillus plantarum) MATKTFKTLDDFLGTHFIYTYDNGWEYEWYAKNDHTVDYRIHGGMVAGRWVTDQKADIVMLTEGIYKISWTEPTGTDVALDFMPNEKKLHGTIFFPKWVEEHPEITVTYQNEHIDLMEQSREKYATYPKLVVPEFANITYMGDAGQNNEDVISEAPYKEMPNDIRNGKYFDQNYHRLNK only.
2.6 fold
